targetUnderTest: UniProt P16083
Sequence (P16083 whole entry): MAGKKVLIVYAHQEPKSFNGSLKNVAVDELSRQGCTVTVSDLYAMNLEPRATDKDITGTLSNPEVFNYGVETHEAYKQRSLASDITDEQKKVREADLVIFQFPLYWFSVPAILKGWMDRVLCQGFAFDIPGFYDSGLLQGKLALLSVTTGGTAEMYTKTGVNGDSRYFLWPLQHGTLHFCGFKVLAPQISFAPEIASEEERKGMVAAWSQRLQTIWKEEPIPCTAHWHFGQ
assayMethodText: Inhibition of Steady-State Catalysis Assay
Procedure: To determine the IC50 value of each inhibitor, reactions were initiated by addition of 154 pM NQO2 to a reaction buffer containing 150 μM SCDP and 5 μM menadione with TBB (0.625−640 μM), TBBz (2.5−640 nM), or DMAT (2.5−640 nM).
quantity: IC50
Answer with the value and then the unit.

Guide cases for IC50, answers given:
CN(C)c1nc2c(Br)c(Br)c(Br)c(Br)c2[nH]1 = 484 nM
Brc1c(Br)c(Br)c2[nH]nnc2c1Br = 12800 nM

Please examine the following record next.
Incoming: Please give the measured IC50 for this compound: `Brc1c(Br)c(Br)c2[nH]cnc2c1Br`
Outgoing: 79.4 nM
